For each of the molecules below, state its AC50.
Target or test system: Amine oxidase [flavin-containing] A (Homo sapiens, UniProt P21397); note: assay procedure not described here
Sequence (P21397 whole entry): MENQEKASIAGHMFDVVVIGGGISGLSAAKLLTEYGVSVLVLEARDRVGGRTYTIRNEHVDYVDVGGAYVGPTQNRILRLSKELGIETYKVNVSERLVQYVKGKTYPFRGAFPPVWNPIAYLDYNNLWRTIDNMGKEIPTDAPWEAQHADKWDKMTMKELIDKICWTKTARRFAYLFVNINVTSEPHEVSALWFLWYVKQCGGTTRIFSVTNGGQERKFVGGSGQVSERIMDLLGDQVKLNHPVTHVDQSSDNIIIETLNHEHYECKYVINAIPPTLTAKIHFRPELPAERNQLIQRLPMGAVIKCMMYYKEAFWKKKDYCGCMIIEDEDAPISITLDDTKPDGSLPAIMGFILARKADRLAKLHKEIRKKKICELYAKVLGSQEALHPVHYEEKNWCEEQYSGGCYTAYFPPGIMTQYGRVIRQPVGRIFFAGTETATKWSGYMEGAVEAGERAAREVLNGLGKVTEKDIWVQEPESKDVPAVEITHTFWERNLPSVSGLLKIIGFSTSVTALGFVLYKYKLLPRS
Format: functional

Data point: Clc1ccc(C(c2ccccc2Cl)C(Cl)Cl)cc1 (stereo unspecified) ; AC50 = > 10 µM

Reported AC50 ( COc1ccc(-c2ccc3cc(C(=O)O)ccc3c2)cc1C12CC3CC(CC(C3)C1)C2 ) = > 30 µM

Sure, the documented AC50 for Cc1nnc2n1-c1ccc(Cl)cc1C(c1ccccc1Cl)=NC2 is > 10 µM

Measured AC50 of COC(=O)C1=C(C)NC(C)=C(C(=O)OC2CCCN(Cc3ccccc3)C2)C1c1cccc([N+](=O)[O-])c1 (stereo unspecified) : > 30 µM

AC50 in this record for CCCCCCOc1ccccc1C(N)=O [EXALAMIDE] : > 30 µM

The molecule identified as C#C[C@]1(O)CC[C@H]2[C@@H]3[C@H](C)CC4=C(CCC(=O)C4)[C@H]3CC[C@@]21C registered its AC50 at > 30 µM

For C[C@](N)(Cc1ccc(O)c(O)c1)C(=O)O the molecule record lists AC50 as > 10 µM

So, Cn1nnc2c(C(N)=O)ncn2c1=O [TEMOZOLOMIDE] ? Its AC50 was > 30 µM

// AC50 value for CC(=O)OCC(=O)[C@@]12N=C(C)O[C@@H]1C[C@H]1[C@@H]3CCC4=CC(=O)C=C[C@]4(C)[C@H]3[C@@H](O)C[C@@]12C : > 30 µM

Lab book: AC50 of O=C(NCCNCC(O)COc1ccc(O)cc1)N1CCOCC1 (stereo unspecified) noted as > 30 µM

// AC50 lookup, molecule = CCOC(=O)[C@H](CCc1ccccc1)N[C@@H](C)C(=O)N1C(=O)N(C)C[C@H]1C(=O)O , result: > 30 µM

Summary for this molecule, CCOc1ccc(Cc2cc([C@@H]3O[C@H](CO)[C@@H](O)[C@H](O)[C@H]3O)ccc2Cl)cc1 : AC50 is > 10 µM

AC50 for CO[C@H]1C[C@@H]2CC[C@@H](C)[C@@](O)(O2)C(=O)C(=O)N2CCCC[C@H]2C(=O)O[C@H]([C@H](C)C[C@@H]2CC[C@@H](O)[C@H](OC)C2)CC(=O)[C@H](C)/C=C(\C)[C@@H](O)[C@@H](OC)C(=O)[C@H](C)C[C@H](C)/C=C/C=C/C=C/1C is 5.6 µM

Per the records, this molecule ( COc1cc2nc(N3CCN(C(=O)c4ccco4)CC3)nc(N)c2cc1OC ) has AC50 equal to > 10 µM

Input CN1CCC(=C2c3ccccc3CCc3sccc32)CC1 . Output AC50: > 10 µM

In plain terms, Clc1ccccc1C(c1ccccc1)(c1ccccc1)n1ccnc1 has a documented AC50 of > 10 µM

Per the records, this molecule ( NS(=O)(=O)Cc1noc2ccccc12 [ZONISAMIDE] ) has AC50 equal to > 10 µM

Query O=C(O[C@H]1C[C@H]2CC[C@@H](C1)[N+]21CCCC1)C(O)(c1ccccc1)c1ccccc1 yields AC50 of > 30 µM

So for CC(C)(C)c1cc(C(C)(C)C)c(NC(=O)c2c[nH]c3ccccc3c2=O)cc1O , the logged AC50 turned out to be > 10 µM

Just so you know, measured AC50 for Cc1cccc(Nc2ccccc2C(=O)O)c1C came out at > 10 µM

Recorded AC50 (molecule CC(=O)Nc1ccc(O)cc1 ): > 30 µM

AC50 in this record for C=CCN1CCCC1CNC(=O)c1cc(S(N)(=O)=O)cc(OC)c1OC (stereo unspecified) [VERALIPRIDE] : > 30 µM

Sample CCCCc1ncc(/C=C(\Cc2cccs2)C(=O)O)n1Cc1ccc(C(=O)O)cc1 ; AC50 observed: > 10 µM

The recorded AC50 for entry CCCC(=O)O[C@]1(C(=O)CO)CC[C@H]2[C@@H]3CCC4=CC(=O)CC[C@]4(C)[C@H]3[C@@H](O)C[C@@]21C [HYDROCORTISONE BUTYRATE] equals > 10 µM

Record Fc1ccc(C(c2ccccc2)(c2ccccc2F)n2ccnc2)cc1 (stereo unspecified) . Reported AC50: > 30 µM

Form: molecule = C[C@H](CSC(=O)c1ccccc1)C(=O)N1C[C@@H](Sc2ccccc2)C[C@H]1C(=O)O ; AC50 = > 10 µM
